system_under_test: SOS1 (Homo sapiens (Human), UniProt Q07889)
Sequence (Q07889 564-1049): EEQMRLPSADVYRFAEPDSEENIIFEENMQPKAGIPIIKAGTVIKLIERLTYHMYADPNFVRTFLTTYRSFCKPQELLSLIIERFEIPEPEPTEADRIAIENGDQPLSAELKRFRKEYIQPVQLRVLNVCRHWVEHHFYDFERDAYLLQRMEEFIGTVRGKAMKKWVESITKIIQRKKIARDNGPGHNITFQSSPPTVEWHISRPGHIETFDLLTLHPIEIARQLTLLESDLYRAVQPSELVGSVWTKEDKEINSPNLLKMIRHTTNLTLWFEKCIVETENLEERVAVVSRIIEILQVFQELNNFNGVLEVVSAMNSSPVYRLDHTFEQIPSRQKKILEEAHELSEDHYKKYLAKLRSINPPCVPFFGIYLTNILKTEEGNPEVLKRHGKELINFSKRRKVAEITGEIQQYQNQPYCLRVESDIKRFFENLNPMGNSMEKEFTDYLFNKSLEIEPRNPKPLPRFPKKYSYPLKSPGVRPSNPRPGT
experimental_details: Ras-SOS interaction assay (HTRF), K-Ras G13D utilized
Type: binding
test_conditions: K-Ras G13D, read-out: SOS1 IC50
// reported IC50 for each item listed

These solved cases illustrate the format of a correct answer.
COc1cc2nc(C)nc3c2cc1OCCOCCOCCOCCOCCNCc1ccccc1-c1cccc(c1)C(C)N3 (stereo not shown)
100 to 5000 nM
C/C1=C\CCCCn2c(=O)c(C3CCS(=O)(=O)CC3)cc3c(ncnc32)N[C@H](C)c2cccc(c2)C(F)(F)C2CCN(CC2)C1
< 100 nM
CC(C)N1CCC(c2cc3c4ncnc3n(c2=O)CCOCCCCN2CCC(CC2)CC(F)(F)c2cccc(c2)[C@@H](C)N4)CC1
< 100 nM
Cc1nc2c3cc(C4(C#N)CC4)c(=O)n(c3n1)CC/C=C\COCC(F)(F)c1cccc(c1F)[C@@H](C)N2
100 to 5000 nM
C[C@H]1Nc2ncnc3c2cc(C2(C#N)CC2)c(=O)n3CCCCNC(=O)CN2CCC(CC2)C(F)(F)c2cccc1c2F
< 100 nM
C[C@H]1Nc2ncnc3c2cc(C2CCS(=O)(=O)CC2)c(=O)n3CCCCNC(=O)CN2CCC(CC2)C(F)(F)c2cccc1c2
< 100 nM

# next compound below
Lab note: measured IC50 of `CC(C)N1CCN(c2cc3c4ncnc3n(c2=O)CCCCCCN2CCC(CC2)CC(F)(F)c2cccc(c2)[C@@H](C)N4)CC1` was < 100 nM
